- TARGET ENTITY: 5-hydroxytryptamine receptor 2B (Homo sapiens); note: assay procedure not described here
- Sequence (P41595 whole entry): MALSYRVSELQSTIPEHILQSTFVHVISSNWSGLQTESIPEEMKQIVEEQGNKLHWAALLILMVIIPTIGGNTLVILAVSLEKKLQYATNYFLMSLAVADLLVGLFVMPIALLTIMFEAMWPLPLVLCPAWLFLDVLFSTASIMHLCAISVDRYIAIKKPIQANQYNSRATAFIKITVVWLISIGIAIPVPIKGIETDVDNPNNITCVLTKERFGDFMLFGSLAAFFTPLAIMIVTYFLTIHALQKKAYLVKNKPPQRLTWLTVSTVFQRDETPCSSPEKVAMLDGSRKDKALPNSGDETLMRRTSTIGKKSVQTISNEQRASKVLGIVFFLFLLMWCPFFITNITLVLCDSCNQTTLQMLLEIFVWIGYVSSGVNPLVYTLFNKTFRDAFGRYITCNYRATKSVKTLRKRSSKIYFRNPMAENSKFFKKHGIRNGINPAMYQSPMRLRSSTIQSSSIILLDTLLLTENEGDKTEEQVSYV
MEASURED METRIC: AC50

Hi! Can you tell me AC50 for each of these molecules?
1. CN(C)CCCC1(c2ccc(F)cc2)OCc2cc(C#N)ccc21 (stereo not drawn)
2. O=C1CN=C(c2ccccc2Cl)c2cc([N+](=O)[O-])ccc2N1
3. O=C(O[C@H]1C[N+]2(CCCOc3ccccc3)CCC1CC2)C(O)(c1cccs1)c1cccs1 [ACLIDINIUM BROMIDE]

Reply |
0.273 µM
> 10 µM
> 10 µM

* * *

Melanocortin receptor 3 (Homo sapiens) AC50 data; note: assay procedure not described here
Sequence (P41968 whole entry): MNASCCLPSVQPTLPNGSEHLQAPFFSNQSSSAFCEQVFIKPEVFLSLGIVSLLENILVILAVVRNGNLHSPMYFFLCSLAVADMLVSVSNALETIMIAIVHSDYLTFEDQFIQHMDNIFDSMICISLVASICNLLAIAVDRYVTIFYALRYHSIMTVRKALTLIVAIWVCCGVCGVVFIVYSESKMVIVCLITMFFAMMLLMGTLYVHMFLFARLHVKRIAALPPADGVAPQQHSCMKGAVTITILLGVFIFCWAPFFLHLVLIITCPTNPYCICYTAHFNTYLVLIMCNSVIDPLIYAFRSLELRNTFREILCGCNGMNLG

>  <MOLECULE>
C[C@H](CCC(=O)O)[C@H]1CC[C@H]2[C@@H]3[C@H](O)C[C@@H]4C[C@H](O)CC[C@]4(C)[C@H]3CC[C@]12C [CHENODIOL]

>  <ASSAY RESULT>
> 30 µM

$$$$
>  <MOLECULE>
CNCCc1ccccn1 [BETAHISTINE]

>  <ASSAY RESULT>
> 30 µM

$$$$
>  <MOLECULE>
CCCO[C@H]1[C@@H]([C@@H](COCc2ccc(Cl)cc2)OCc2ccc(Cl)cc2)OC(OCC)[C@@H]1O (stereo partly drawn) [CLOBENOSIDE]

>  <ASSAY RESULT>
> 30 µM

$$$$
>  <MOLECULE>
CC(=O)NC[C@H]1CN(c2ccc(N3CCOCC3)c(F)c2)C(=O)O1 [LINEZOLID]

>  <ASSAY RESULT>
> 30 µM

$$$$
>  <MOLECULE>
O=C1[C@@H]2[C@H]3CC[C@H](C3)[C@@H]2C(=O)N1C[C@@H]1CCCC[C@H]1CN1CCN(c2nsc3ccccc23)CC1 [LURASIDONE]

>  <ASSAY RESULT>
> 30 µM

$$$$
>  <MOLECULE>
CCN(CC)C(C)C(=O)c1ccccc1 (stereo not drawn) [DIETHYLPROPION]

>  <ASSAY RESULT>
> 30 µM

$$$$
>  <MOLECULE>
Cc1c(C)c2c(c(C)c1O)CCC(C)(COc1ccc(CC3SC(=O)NC3=O)cc1)O2 (stereo not drawn) [TROGLITAZONE]

>  <ASSAY RESULT>
> 30 µM

$$$$

Ask | Query: AC50; subject: C[C@H](Cn1cnc2c(N)ncnc21)OCP(=O)(O)O [TENOFOVIR ANHYDROUS]
Reply | > 30 µM
